- tested on: HCV Core 134-171-TT peptide (ALRZ-9 peptide) (HCV-1)
- assay method text: SPR, captured mAb;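 note: Anti-HCV Core mAbs from hybridoma supernatants held on a rabbit anti-mouse IgG CM5 surface, peptide flowed over 3 min then 4 min dissociation, duplicate concentrations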
Form field: kon (one value per entry).
Report the value in M⁻¹ s⁻¹ with no unit label.

Here's what some known entries look like.
1) HCV 208A-638 (antibody, V domains shown) VH: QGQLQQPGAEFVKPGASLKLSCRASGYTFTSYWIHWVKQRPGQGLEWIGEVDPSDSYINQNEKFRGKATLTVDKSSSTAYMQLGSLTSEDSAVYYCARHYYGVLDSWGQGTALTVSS VL: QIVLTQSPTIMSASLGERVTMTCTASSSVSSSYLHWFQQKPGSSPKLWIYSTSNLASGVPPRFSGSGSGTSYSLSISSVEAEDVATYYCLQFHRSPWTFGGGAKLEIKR : 2.7e+06
2) HCV 208A-605 (antibody, V domains shown) VH: EVQLQQSGPELEKPGASVKISCKTSGYTFTEYAIHWVKQSHGMSLEWIGGINPSNGNAIYNQIFKDKATLTVDRSSSTAYMGLRSLTFGDSGVYFCVRRQLDFFDYWGQGASLTVSS VL: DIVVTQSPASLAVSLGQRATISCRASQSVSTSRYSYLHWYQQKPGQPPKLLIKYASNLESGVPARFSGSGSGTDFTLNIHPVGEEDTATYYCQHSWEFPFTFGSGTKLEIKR : 870000
3) HCV 208A-557 (antibody, V domains shown) VH: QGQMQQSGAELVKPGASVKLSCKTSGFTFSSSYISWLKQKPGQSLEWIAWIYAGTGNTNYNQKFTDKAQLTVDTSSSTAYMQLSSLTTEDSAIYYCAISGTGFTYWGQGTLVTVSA VL: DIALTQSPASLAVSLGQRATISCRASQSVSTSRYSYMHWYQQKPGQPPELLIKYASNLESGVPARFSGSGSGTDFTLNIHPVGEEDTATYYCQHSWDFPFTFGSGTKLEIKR : 2.4e+06
4) HCV 208A-134 (antibody, V domains shown) VH: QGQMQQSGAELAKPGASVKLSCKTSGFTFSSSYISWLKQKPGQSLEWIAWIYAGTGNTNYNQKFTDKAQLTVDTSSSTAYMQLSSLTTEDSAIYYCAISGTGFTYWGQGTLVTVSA VL: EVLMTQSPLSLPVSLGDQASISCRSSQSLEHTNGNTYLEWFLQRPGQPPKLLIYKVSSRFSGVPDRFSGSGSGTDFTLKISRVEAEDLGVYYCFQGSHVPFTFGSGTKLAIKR : 18000
5) HCV 208B-589 (antibody, V domains shown) VH: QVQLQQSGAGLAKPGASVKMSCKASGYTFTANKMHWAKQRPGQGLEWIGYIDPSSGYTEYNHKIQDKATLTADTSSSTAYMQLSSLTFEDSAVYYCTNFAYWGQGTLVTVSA VL: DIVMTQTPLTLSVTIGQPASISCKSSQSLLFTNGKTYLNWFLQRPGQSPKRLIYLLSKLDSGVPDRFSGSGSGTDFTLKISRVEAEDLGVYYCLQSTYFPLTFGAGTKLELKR : 960000

Proceed to the following item.
Measured kon, HCV 208B-1094 (antibody, V domains shown) VH: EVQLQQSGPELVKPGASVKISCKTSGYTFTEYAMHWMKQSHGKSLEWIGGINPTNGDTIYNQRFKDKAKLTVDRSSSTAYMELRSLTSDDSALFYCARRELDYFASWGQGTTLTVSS VL: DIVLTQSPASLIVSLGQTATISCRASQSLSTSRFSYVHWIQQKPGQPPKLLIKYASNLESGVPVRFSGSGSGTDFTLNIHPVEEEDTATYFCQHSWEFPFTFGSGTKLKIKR : 1.5e+06
